target: purified C. albicans Cho1 (phosphatidylserine synthase) (Candida albicans, UniProt A0A1D8PF32); assay: malachite-green-based nucleotidase-coupled assay, dose-response; type: biochemical; conditions: 10-point dose-response, top 200 µM, 3 h at 30°C, three replicates; read-out: Best-fit IC50, inhibition of Cho1
Sequence (A0A1D8PF32 entry or part of it): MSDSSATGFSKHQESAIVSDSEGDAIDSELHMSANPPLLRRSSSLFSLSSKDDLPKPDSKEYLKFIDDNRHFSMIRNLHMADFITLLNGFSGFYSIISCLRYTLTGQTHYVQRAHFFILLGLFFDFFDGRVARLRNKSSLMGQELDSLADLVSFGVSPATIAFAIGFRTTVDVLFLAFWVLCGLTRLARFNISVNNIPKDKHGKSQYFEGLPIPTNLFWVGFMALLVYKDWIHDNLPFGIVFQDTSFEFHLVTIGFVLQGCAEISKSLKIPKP
Here, each record is paired with measured IC50 data.

Examples with their reported IC50 follow.
- O=C(C1CC1)N1CCN(Cn2sc3ccccc3c2=O)CC1 [LOC14]: ~75.5 µM
- c1ccc(Nc2nc3c(s2)CCCc2[nH]ncc2-3)nc1 [TC-N 22A]: ~65.3 µM

In the following, a different molecule is considered.
# get_value(readout='IC50', item= CC(C)c1cc(C(C)C)c(CC(=O)NS(=O)(=O)Oc2c(C(C)C)cccc2C(C)C)c(C(C)C)c1 [Avasimibe] )
~23.4 µM

* * *

target: purified hexameric Cho1 (Candida albicans)
property-measured: Ki
Record the result as a number with its unit.

// query Ki value for entry CCOC(=O)c1sc(NC(=O)c2ccco2)c(SC#N)c1C
1550 nM

These measurements were taken from paper PMC11077991.
